meta.source: the supplement of paper PMC9170038

Test system: K4 kissing-loop RNA reporter;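 further: bound reporter read as fluorescence of individual clusters on recovered sequencing chips by microscopy, with normalized cluster intensities fitted with a binding model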
protocol-text: apparent KD of K4 kissing-loop reporter; higher = weaker reporter binding
measurement-context: Eterna round: R107; input ligand: none
Outcome label depends on apparent KD of K4 kissing-loop reporter relative to 300 nM: at/above gives Fulfilled, below gives Not fulfilled.

// query I'd appreciate it if you could say whether ACGUAGCAGGCGGCCGCCACUCCGCAUAUGGAUCUCGAGUGAUGUUUGAGGGUGCCCAUCACAGCGAGGACCGGGCCAAUUAAGC [theeternabot_sameState_KL_Trp_B_10] has apparent KD of K4 kissing-loop reporter at least equal to 300 nM.
// result Not fulfilled

// query Given the entry UGUGUUGUUUUGAUGUUUGGUGUUGCUUGGCAGGAUAUCGUAGAGGCGAGAAGGGCUUGUGAGCGGUAUGAGUGAUGUUUGUAGG [zwwrmullin] , answer whether its apparent KD of K4 kissing-loop reporter meets or surpasses 300 nM.
// result Fulfilled

// query Please indicate if the recorded apparent KD of K4 kissing-loop reporter for GAUUUAGAGGCGGCCGCCACUAGUGAUGUUAGUGAUGUUUGAUACUGAAUAUAUCUGCGUUUAGAUAGGACCGGGCCAGAUGGAG [qzwqmullin] meets or exceeds 300 nM.
// result Not fulfilled

// query Item UUGUUUUACUGAAGGAGCGGCAAUUGAUACGUAGAUAUAGUGAUGUUAUAUAAGAUAGAGAGCCAGGUAGGUCGCAGAUUUGUUU [ExArgB.U] with apparent KD of K4 kissing-loop reporter of 300 nM or above?
// result Not fulfilled

// query I'd appreciate it if you could say whether UAAAACGCUUGAAUAACAAGCGAAAAUUCGCGAGGACCGGUACGGCCGCCACUCGCUAACUGCGAGUGAUGUUCGAUAAUAAAAU [Mat - Mod of OpenEnded 3 - D4] has apparent KD of K4 kissing-loop reporter at least equal to 300 nM.
// result Not fulfilled

// query Could you verify whether the entry CCAUUCUUUUACGAUACCAGUUUAAUAUAUUUAUUCAUAACCCUUGCCGAGUGAUGUUCGGACCCUUGGCAGCGUUUGCGAGAGG [lliltkmullin] shows apparent KD of K4 kissing-loop reporter of no less than 300 nM?
// result Fulfilled

// query Check if apparent KD of K4 kissing-loop reporter >= 300 nM (inclusive). Item: AGGAAGUGAGAAGGAUAUUACACUCGGAAGCGCUAGUGAUGUUAGCAUAGAAACAAGGGAACAUGGUAAGAAGGUCUUACAAUGA [theeternabot_sameState_KL_FMN_B_2]
// result Not fulfilled

// query Is apparent KD of K4 kissing-loop reporter for AAAUUGUUUAGAGGAUAUUCUUUAUUCGACAUAACCUUCUAUAAGGUGCAGUGAUGUUGCAAUAUAGGAGAAGGUUGAGUGAUAA [Exclusion FMN B Gf 15] at or above 300 nM?
// result Not fulfilled

// query # bool: apparent KD of K4 kissing-loop reporter of CCGGGCGGCUGAAGGAGCGGGCGGGCCCGAGUGAUGUUCGGGUGGGCCGUGAGGUCCGGUGCCCAGGUAGGUCGCGGUUCCGCCC [#2 Same State - Arginine B Attempt #10 (HarryS)] >= 300 nM
// result Not fulfilled

// query Tell me whether apparent KD of K4 kissing-loop reporter is at least 300 nM here: AGACAUAUGACUGUAUGUUUCCAAGGUGUCAAGGAUAUAGUAAACACUAGAAGGUGAGAUCACAGGAGUGAUGUUCGAAAAUGGA [theeternabot_sameState_KL_FMN_A_14]
// result Not fulfilled
